assay.system: ΔF508-CFTR (Homo sapiens, UniProt P13569, DEL508-508)
Sequence (P13569 with tags, fused parts or gaps DEL508-508): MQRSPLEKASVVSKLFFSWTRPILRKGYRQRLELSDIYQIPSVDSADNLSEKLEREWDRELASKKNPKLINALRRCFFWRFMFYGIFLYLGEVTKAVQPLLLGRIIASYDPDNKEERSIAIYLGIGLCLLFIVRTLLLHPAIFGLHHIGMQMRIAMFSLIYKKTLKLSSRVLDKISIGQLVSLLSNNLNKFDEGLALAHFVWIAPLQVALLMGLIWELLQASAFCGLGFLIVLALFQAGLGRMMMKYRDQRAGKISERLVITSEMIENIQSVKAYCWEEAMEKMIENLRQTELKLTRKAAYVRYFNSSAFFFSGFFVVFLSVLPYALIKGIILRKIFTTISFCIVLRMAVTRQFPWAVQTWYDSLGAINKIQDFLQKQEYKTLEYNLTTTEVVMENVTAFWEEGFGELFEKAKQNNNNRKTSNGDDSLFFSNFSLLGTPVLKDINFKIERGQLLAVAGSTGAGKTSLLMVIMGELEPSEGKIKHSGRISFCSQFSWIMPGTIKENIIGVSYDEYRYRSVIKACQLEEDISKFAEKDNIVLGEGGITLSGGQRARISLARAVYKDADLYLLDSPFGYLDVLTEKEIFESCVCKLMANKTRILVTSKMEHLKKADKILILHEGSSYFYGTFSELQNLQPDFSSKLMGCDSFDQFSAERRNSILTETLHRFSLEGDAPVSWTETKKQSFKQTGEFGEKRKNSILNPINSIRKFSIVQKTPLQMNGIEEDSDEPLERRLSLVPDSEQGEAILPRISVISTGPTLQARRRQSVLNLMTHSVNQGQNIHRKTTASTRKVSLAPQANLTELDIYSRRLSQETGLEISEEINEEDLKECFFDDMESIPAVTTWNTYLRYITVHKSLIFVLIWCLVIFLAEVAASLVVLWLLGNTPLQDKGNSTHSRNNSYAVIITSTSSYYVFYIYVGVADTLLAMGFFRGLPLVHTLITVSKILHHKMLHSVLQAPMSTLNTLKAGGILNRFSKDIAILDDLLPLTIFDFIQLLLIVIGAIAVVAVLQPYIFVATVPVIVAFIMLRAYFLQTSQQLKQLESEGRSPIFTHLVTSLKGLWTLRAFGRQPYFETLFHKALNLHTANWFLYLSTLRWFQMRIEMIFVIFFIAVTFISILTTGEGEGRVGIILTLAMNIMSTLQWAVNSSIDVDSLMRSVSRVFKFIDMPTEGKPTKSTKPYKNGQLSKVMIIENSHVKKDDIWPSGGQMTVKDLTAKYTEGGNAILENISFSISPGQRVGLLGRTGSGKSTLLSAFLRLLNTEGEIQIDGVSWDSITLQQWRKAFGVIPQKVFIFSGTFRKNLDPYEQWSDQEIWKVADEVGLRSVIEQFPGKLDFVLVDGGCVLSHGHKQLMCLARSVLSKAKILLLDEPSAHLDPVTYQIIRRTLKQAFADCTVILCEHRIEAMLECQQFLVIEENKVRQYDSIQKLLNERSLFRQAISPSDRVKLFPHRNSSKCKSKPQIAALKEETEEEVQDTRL
assay.summary: Membrane potential optical assay of ΔF508-CFTR modulation (Table 3 EC50; the table does not name the assay)
readout.name: EC50

Illustrative cases are given below, each with its answer.
compound	observed.measurement
O=C(NC(c1ccccc1)c1ccccc1)C(=O)c1c[nH]c2ccccc12 [Compound 1]	< 1 µM
O=C(NCC(c1ccccc1)c1ccccc1)C(=O)c1c[nH]c2ccccc12 [Compound 18]	< 1 µM

List the reported EC50 of each compound below.
1. O=C(NC(CSCc1ccccc1)CSCc1ccccc1)C(=O)c1c[nH]c2ccccc12 [Compound 17]
2. Cn1cc(C(=O)C(=O)NCCc2ccccc2)c2ccccc21 [Compound 10]
3. O=C(NC(CN1CCOCC1)c1ccccc1)C(=O)c1c[nH]c2ccccc12 (centres unmarked) [Compound 4]
4. COc1ccc(CCNC(=O)C(=O)c2c[nH]c3ccc(Br)cc23)cc1 [Compound 13]
5. O=C(C(=O)N(Cc1ccccc1)Cc1ccccc1)c1c[nH]c2ccccc12 [Compound 5]

1. 1 to 5 µM
2. > 5 µM
3. > 5 µM
4. 1 to 5 µM
5. < 1 µM

Tell me the measured EC50 of Cn1cc(C(=O)C(=O)NCc2ccccc2)c2ccccc21 [Compound 9] , please.
> 5 µM
